- subjectOfTest: T1, human IL-2Rγ (common cytokine receptor γ-chain) (human, UniProt P31785 23-262, limits assumed)
- T1 construct: Recombinant protein coated on the plate or immobilised on a CM5 chip; also called hu IL-2R; CD132
- T1 sequence: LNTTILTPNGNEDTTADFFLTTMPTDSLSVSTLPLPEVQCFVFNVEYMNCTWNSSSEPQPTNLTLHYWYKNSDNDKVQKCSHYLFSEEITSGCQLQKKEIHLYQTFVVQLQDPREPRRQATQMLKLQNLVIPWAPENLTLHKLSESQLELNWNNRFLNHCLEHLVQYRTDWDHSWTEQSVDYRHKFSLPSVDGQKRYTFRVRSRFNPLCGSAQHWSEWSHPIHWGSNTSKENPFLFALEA
- experimentNotes: SPR off-rate ranking, periplasmic extract on immobilised protein

{"columns": ["binder", "koff, s⁻¹"],
 "data": [
  ["FJ1427_P035MP04G09 (VHH, VHH in periplasmic extract; also called clone nr) VHH: QVQLQESGGGLVQAGGSLRLSCAASGPTFSRVAVGWFRQVPGKEREFVAAVNRPATMTKYADSVKGRFTISRDNAKNTVDLQMNSMKPEDTAVYYCAADSVPYGRPYYFQTSAGEYDYWGQGTQVTVSS", 0.0658],
  ["FJ1427_P035MP04C05 (VHH, VHH in periplasmic extract; also called clone nr) VHH: QVQLVESGGGWVQVGESLRLSCAPSGRTFVSGIMGWFRQAPGKEREFVARIILNNNSTRYTDSVKGRFTISRDSAKDTMYLQMNTLRPEDTAVYYCAARDRYGSGNSLSPSAYDYWGQGTQVTVSS", 0.00775]
]}

Reference source: patent US20240409645A1
